Below, each entry is listed with its recorded melting point.
// units = °C; emit number, no label

Check out these entries, answers already filled in.
* COc1cc(OC)c(/C=C/C(=O)c2c(OC)cc(N)cc2OC)c(OC)c1 | 188
* COc1cc(/C=C/C(=O)c2c(OC)cccc2OC)cc(OC)c1OC | 136
* COc1ccc(C(=O)/C=C/c2ccc(OC)c(OC)c2OC)c(O)c1 [Example 22, 2′-hydroxy-2,3,4,4′-tetramethoxychalcone] | 152

For COc1cc(OC)c(OC)cc1/C=C/C(=O)c1c(OC)cccc1OC the compound record lists melting point as 143

For COc1ccc(C(=O)/C=C/c2cc(OC)c(OC)c(OC)c2)c(O)c1 [Example 21, 2′-hydroxy-3,4,4′,5-tetramethoxychalcone] the compound record lists melting point as 110

For COc1cccc(OC)c1C(=O)/C=C/c1c(OC)c(F)c(OC)c(F)c1OC the compound record lists melting point as 108

For CCOc1cccc(OCC)c1C(=O)/C=C/c1c(OC)cc(OC)cc1OC the compound record lists melting point as 102

For COc1ccc(C(=O)/C=C/c2c(OC)cc(OC)cc2OC)c(OC)c1 the compound record lists melting point as 162

For CCOc1cc(OCC)c(/C=C/C(=O)c2c(OC)cccc2OC)c(OCC)c1 the compound record lists melting point as 154

For COc1cccc(OC)c1C(=O)/C=C/c1c(C)cc(C)cc1C the compound record lists melting point as 126

For COc1cc(OC)c(/C=C/C(=O)c2c(OC)cc(OC)cc2OC)c(OC)c1 the compound record lists melting point as 150
